assay_remarks: protease stability score; higher = more stable; yeast display proteolysis, trypsin and chymotrypsin;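 note: relative to predicted unfolded state with 0 unfolded-like and 1 meaning tenfold more protease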
assay_metric: protease stability score

In [3]: df
Out[3]:
                              sequence_entry  recorded_measurement
 0  SEEKRIDQHFTEQLDRLIETGDEEQLNKLADPHARLIFNGRTEHGREESHKLRHELLERWGHDRVHVELKDMEVQGDKLIVHTVIQINGVKFHVEIIVRKINGRWKMTEVRII                 0.314
 1  DDREKETQEFFERWVEAFITGDEHDLHEMLDPHARIHLIIGDKKEDLHGRESAVEVMKRIDHKHEFRIRHLWIFDGRIHVDVKLTGHFDGRTYQHDVHINIKIVDGKIHSIQIEWR                  2.22
 2  SEEERRYELFLNLLREIMETGDEHRRSNLMDPHVRFDWNGVEFHGREMLEFIIERLHKEARLESYEIHRVTLIGDKIELRVREKRRVGNKIIEWDVIIIVRKIDGKWTIEEVEIR                  1.63
 3  DEDEEEAEERVKEWIKALRTGDEDHILELVDPNDRFIINGVHLHGREFLLRWLRELRVDDVEVKTIKFVDGVAHVDTKMRVTVDGRETELETRLIWKKFDGRWFIESHRIR                  1.62
 4  EEEEEHMEHMMRLTLQLFKTGDEETFIDLLDPNVKVHINGVTVHGWDRLIRVKEMIDKEIRFRDFIIHHIRVVDGRAEMEGTVTGDVNGQSRIRDWRSILVVIDGKIKSISWQFN                  2.27
 5  DEMEEQIKRLIHLLAHYLRTGDEHSTEELADPNVRIHIDGKEYHGRELFIKFLHERLRHLGIKHIHIHIKDIREIDGRIHIDGELEQHIDGKERRMKQEMLVEKIDGQWHIKELEIE                  2.59
 6  DRLEELVERIAEIFLESYLTGDWKHLFDYFDPHAKLNIDGQESVGRESIQLMLEIHFKRVDHIQHFHRDDHRIQGNKFVFIGTLEGHVNGRTTRSRVKVEVTAVDGRIEELHIHIE                  1.23
 7  SEEEEIYKRIADLFLQIFSTGDEDRLHRLADPDVKWEYGDKKNVGMKDVIHYFEHIWMHVERSDNTDVDLQGNKARVDMRSDIRIEINGRELRIKVSVLIIIVKFNGRWTVHSLRIE                  1.27
 8  HEDHERVRHIIERWWHILETGDEDEMEDMADPNVQIYIGDKRHHGREILAEHVRKFKGKKVNIKRLDIQGDKFRVDGDVHYDGRHHRVRIEIDVVDGRIKRLRIEIE                  1.38
 9  SEMENLAREALRIIFHNVLTGDEEEFIRMADPNVRFDINGVEYHGWKRVLQELQRFKGLRIHHIHLEDMDNQGDKIIIYSKLEVHYNGVHTELTVEFISEKVNGRWILRMVVFH                  2.47
10  SEEKKQSDEAWELYIKSVETGDFRMLHELLDPNVKIHIGDKDIHGREYIMEHMLKFGVTTQSRFEVKDIKLQGDFVIIHGHIRSIFHFNGRTLRVEHDVEIFATKFDGRWWTHSVEVN                  1.18
11  DEMEDSSRWALEVEMKSFKTGDERSLYEMVDPHAKFEFENHHDHGRSAVELWREQADHMHIDFRLKDMRLVGDFIIIHGVELVHNHVNGRDIDLNLDVRIISRKINGRWILHHVLFR                  1.38
12  DEEEELVRLATEHSLELMRTGDWSHLHKLMDPHALLSVNGREVHGRENAVRLIITILEDLGVKHFHLEHVEVIDGRVNIDGRLHQGDKKLNNEIWLVKINGRWRLKSIHIELK                  1.17
13  DEDEEAVRHVVEEWFKFLLTGDEESFEKMFDPSARLIIGDKHYHGRDLLSHVLRELRFKEHRIHDMEIRVVNGKAEVIIHGHEVGIWNGVESESHSEIIIIIDKYDGRWHFHSVEIIFR                     2
14  DESEEHSEIMLRILHHALRTGDEEEITRLLDPHVRVIIGDKHYHGWEDYVKTVFTTAKEMRMHIHITDSKVQGNYVHLDTRLLIHYNGKTFTYNTRLVTVKVNGQWRLHSETSH                     1
15  DKEKEDAVRIVEHWIEALLTGDEHELKKYLDPEVRVEINGRDIHGMHLWSEHFKELRHEELHIHIRTVHVFDGKMSVEGELRIVGEVDGRRTDIIYHTEIEIEKVDGRWHIHHIHLR                -0.195
16  SDEEKFFEKLLRDILHLWLTGDEDTFHQLLDPNMRSDVDGVDLHGRETVAKFLKERLKHLGIDHVQLESETAIGDKFFINTTISINGVETKMHLHFRVVNGVVHSLEVKVR                  1.26
17  SEEEELHDEHLKKIYTALLTGDFDTFRNMVDPHVRLDWNGVRLHGREVVVRTMIELGADHIEIKEVSFQGDKVDLHFREKVNGKEFRVRIEKQKFNGQWSISSEHQR                  1.14
18  SEEKKWEDDFMEDFLRAFHTGDFHRLLELLDPHVRIEINFENRKIDLIGREEFEKWMRRVKNARFHVEHWHSINGVNFSDTVLRYGDKEQKTELIFHVYNGKVKHIDVEFH                  2.26
19  DERLEIARRVVELSIRMLHTGNEEVVRHLLDPNYRLHINGVHLIGMEEFSKWLKELRFDLEHVQMHHITDINGRLFVIGEIIGRLHYDGVTVREERESIWFIEKVDGKWIIKEVELR                  1.18
20  SESEEEARRKSEVFLRHLRTGDFREFIKLADPHVLNIFPGVNHVGREHWRRLELHLRRREFRVHDERLDIQGDKVRINIDLETDVEFDGKELKFRTLILIEAEKVDGRWRVTEVSEEPR                 0.524
21  SEEEKRADEFNRRWVHKMQTGDEESLHELIDPNAKLHFEGHDEVGMQRVSHTIVKFFLEIRVHYIHITDARVYDGRLELDTRVDGEFNGKRDTLKIELYVLKVNGVWLLKELRVS                     1
